The values you see were collected from paper PMC9230645.

# test-system: GSK3β (Homo sapiens)
# Construct: purchased Carna Biosciences
# assay-notes: GSK3β kinase assay (TR-FRET / Lance HTRF)
# Assay type: biochemical
# applied-conditions: 0.5 μM compound
Answer Not satisfied if inhibition at 0.5 µM is under 60%, and Satisfied if it is 60% or more.

{"columns": ["smiles-entry", "classification"],
 "data": [
  ["CCc1cc(NCc2scnc2-c2ccccc2)n2nccc2n1", "Not satisfied"],
  ["Cc1cc(NCCCNc2cccnc2)n2nccc2n1", "Not satisfied"],
  ["Cc1c(CNc2cc(-c3ccccc3F)nc3ccnn23)cnn1C", "Not satisfied"],
  ["Cc1nc[nH]c1CSCCNc1cc(-c2ccccc2)nc2ccnn12", "Satisfied"],
  ["COCc1cc(NCc2nnn[nH]2)n2nccc2n1", "Not satisfied"],
  ["CCc1nccn1CCCNc1cc(-c2ccc(F)cc2)nc2ccnn12", "Satisfied"]
]}

----------
# test-system: GSK3β (Homo sapiens)
// reported IC50 per item
measure: IC50 (µM)

{"columns": ["smiles-entry", "measure", "result"],
 "data": [
  ["Cc1c(CNc2cc(-c3ccccc3F)nc3ccnn23)cnn1C", "IC50", 0.347],
  ["CCc1nccn1CCCNc1cc(-c2ccc(F)cc2)nc2ccnn12", "IC50", 0.037],
  ["COCc1cc(NCc2nnn[nH]2)n2nccc2n1", "IC50", 0.701],
  ["Cc1cc(NCCCNc2cccnc2)n2nccc2n1", "IC50", 1.03]
]}

----------
Listed next: entries and their corresponding inhibition at 5 µM.
# test-system: GSK3β (Homo sapiens, UniProt P49841)
# Construct: purchased Carna Biosciences
# Sequence (P49841 whole entry): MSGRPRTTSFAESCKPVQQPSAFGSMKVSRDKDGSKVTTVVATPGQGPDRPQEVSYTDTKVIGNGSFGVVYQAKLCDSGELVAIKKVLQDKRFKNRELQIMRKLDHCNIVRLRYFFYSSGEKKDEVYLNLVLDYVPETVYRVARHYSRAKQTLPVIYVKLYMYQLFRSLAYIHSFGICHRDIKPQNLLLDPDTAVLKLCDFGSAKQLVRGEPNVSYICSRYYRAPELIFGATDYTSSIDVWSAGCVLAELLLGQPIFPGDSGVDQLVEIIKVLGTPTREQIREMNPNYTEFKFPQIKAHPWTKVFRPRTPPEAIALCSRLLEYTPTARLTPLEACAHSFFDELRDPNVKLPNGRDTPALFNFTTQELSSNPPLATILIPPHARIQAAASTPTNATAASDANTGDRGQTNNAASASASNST
# assay-notes: GSK3β kinase assay (TR-FRET / Lance HTRF)
# Format: biochemical
# applied-conditions: 5 μM compound
measure: inhibition at 5 µM (%)

{"columns": ["compound", "test-system", "measure", "units", "result"],
 "data": [
  ["COCc1cc(NCc2nnn[nH]2)n2nccc2n1", "GSK3β (Homo sapiens, UniProt P49841)", "inhibition at 5 µM", "%", 95],
  ["CCc1nccn1CCCNc1cc(-c2ccc(F)cc2)nc2ccnn12", "GSK3β (Homo sapiens, UniProt P49841)", "inhibition at 5 µM", "%", 100],
  ["CCc1cc(NCc2scnc2-c2ccccc2)n2nccc2n1", "GSK3β (Homo sapiens, UniProt P49841)", "inhibition at 5 µM", "%", 91],
  ["Cc1nc[nH]c1CSCCNc1cc(-c2ccccc2)nc2ccnn12", "GSK3β (Homo sapiens, UniProt P49841)", "inhibition at 5 µM", "%", 100],
  ["Cc1cc(NCCCNc2cccnc2)n2nccc2n1", "GSK3β (Homo sapiens, UniProt P49841)", "inhibition at 5 µM", "%", 90],
  ["Cc1c(CNc2cc(-c3ccccc3F)nc3ccnn23)cnn1C", "GSK3β (Homo sapiens, UniProt P49841)", "inhibition at 5 µM", "%", 96],
  ["Cn1cc(C2=C(c3ccc(Cl)cc3Cl)C(=O)NC2=O)c2ccccc21 [8 (SB216763), SB216763, reference compound]", "GSK3β (Homo sapiens, UniProt P49841)", "inhibition at 5 µM", "%", 100]
]}

----------
# test-system: GSK3β (Homo sapiens)
measure: Ki (nM)

{"columns": ["smiles-entry", "units", "result"],
 "data": [
  ["CCc1nccn1CCCNc1cc(-c2ccc(F)cc2)nc2ccnn12", "nM", 41.8]
]}
